Source of measurements: ChEMBL document CHEMBL1139608

- target or test system: Disintegrin and metalloproteinase domain-containing protein 17 (Homo sapiens, UniProt P78536)
- Sequence (P78536 whole entry, the tested form may be a part): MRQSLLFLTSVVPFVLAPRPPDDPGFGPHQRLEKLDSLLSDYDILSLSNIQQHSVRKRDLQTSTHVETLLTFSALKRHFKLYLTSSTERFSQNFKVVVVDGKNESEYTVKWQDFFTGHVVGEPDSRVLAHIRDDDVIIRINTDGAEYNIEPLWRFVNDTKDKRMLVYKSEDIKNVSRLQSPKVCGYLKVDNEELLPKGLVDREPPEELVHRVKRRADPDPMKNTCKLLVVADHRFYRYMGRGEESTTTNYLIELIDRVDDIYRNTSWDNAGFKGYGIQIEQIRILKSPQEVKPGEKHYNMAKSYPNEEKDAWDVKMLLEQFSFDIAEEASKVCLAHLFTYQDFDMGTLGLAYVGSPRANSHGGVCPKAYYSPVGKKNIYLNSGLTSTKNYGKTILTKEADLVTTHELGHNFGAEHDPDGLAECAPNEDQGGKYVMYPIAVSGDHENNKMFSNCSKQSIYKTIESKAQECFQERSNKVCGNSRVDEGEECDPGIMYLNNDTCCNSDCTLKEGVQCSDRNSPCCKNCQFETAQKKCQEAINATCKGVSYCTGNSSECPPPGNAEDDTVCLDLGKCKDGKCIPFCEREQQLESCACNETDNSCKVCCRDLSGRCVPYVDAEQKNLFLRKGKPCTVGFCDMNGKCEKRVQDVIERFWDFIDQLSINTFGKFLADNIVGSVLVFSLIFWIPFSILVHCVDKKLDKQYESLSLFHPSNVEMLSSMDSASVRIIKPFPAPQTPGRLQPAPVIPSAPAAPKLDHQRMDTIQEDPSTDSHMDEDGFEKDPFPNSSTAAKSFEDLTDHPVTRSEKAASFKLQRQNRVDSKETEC
The reader will find reported IC50 values listed item by item below.
Please reply with the bare figure in nM and do not write the unit itself.

// worked examples, IC50 included
{"columns": ["smiles representation", "output unit", "IC50"],
 "data": [
  ["Cc1cc(COc2ccc(C3(C)C(=O)NC(=O)NC3=O)cc2)c2ccccc2n1", "nM", 1030],
  ["CC(=O)c1ccc(N2CCN(C3(c4ccc(OCc5cc(C)nc6ccccc56)cc4)C(=O)NC(=O)NC3=O)CC2)cc1", "nM", 620],
  ["Cc1cc(COc2ccc(C3(N4CCOCC4)C(=O)NC(=O)NC3=O)cc2)c2ccccc2n1", "nM", 535],
  ["Cc1cc(COc2ccc(C3(N4CCNCC4)C(=O)NC(=O)NC3=O)cc2)c2ccccc2n1", "nM", 1100],
  ["Cc1cc(COc2ccc(C3(N4CCN(C(=O)C(C)(C)C)CC4)C(=O)NC(=O)NC3=O)cc2)c2ccccc2n1", "nM", 5400]
]}

Lookup: Would you mind telling me what IC50 value was observed for Cc1cc(COc2ccc(C3(N4CCN(c5ccc([N+](=O)[O-])cc5)CC4)C(=O)NC(=O)NC3=O)cc2)c2ccccc2n1 ?
Found: 2800

Lookup: Would you mind telling me what IC50 value was observed for Cc1cc(COc2ccc(C3(N4CCN(S(C)(=O)=O)CC4)C(=O)NC(=O)NC3=O)cc2)c2ccccc2n1 ?
Found: 275

Lookup: Would you mind telling me what IC50 value was observed for CCCCCCN1CCN(C2(c3ccc(OCc4cc(C)nc5ccccc45)cc3)C(=O)NC(=O)NC2=O)CC1 ?
Found: 81

Lookup: Would you mind telling me what IC50 value was observed for Cc1cc(COc2ccc(C3(N4CCN(Cc5ccccc5)CC4)C(=O)NC(=O)NC3=O)cc2)c2ccccc2n1 ?
Found: 195
